// provenance: the nanobody polyreactivity screen of Harvey et al. (2022)

# Method summary: yeast display, Sf9 membrane polyspecificity reagent, FACS + sequencing; frameworks hold sequencing errors
Endpoint label: polyreactivity (PSR sort gate)

construct_sequence=QVQLVESGGGLVQAGGSLRLTCAASGSIFGWYVMGWYIPAPGKERELVAAISSVGSTYYADSVKGRFTISRDNAKNTVYLQMKSLKREDTAVYYCAKLRYPYLFWDDSEYWGQGTQVTVSS endpoint_label="polyreactivity (PSR sort gate)" val="low polyreactivity"
construct_sequence=QVQLVESGGGFVQAGGSLRLSCAASGYIFEWNAMGWYRQAPGKERELVASIDSDGSTYYADSVKGRFTISRDNAKNTVYLQMNSLKPEDTAVYYCNARGYTGGEVLAEYDYWGQGTQVTVSS endpoint_label="polyreactivity (PSR sort gate)" val="low polyreactivity"
